target: Amine oxidase [flavin-containing] B (Homo sapiens); test: Inhibition of human recombinant MAO-B expressed in baculovirus infected BTI insect cells using luminogenic MAO substrate incubated for 1 hr by MAO-Glo assay
Sequence (P27338 whole entry): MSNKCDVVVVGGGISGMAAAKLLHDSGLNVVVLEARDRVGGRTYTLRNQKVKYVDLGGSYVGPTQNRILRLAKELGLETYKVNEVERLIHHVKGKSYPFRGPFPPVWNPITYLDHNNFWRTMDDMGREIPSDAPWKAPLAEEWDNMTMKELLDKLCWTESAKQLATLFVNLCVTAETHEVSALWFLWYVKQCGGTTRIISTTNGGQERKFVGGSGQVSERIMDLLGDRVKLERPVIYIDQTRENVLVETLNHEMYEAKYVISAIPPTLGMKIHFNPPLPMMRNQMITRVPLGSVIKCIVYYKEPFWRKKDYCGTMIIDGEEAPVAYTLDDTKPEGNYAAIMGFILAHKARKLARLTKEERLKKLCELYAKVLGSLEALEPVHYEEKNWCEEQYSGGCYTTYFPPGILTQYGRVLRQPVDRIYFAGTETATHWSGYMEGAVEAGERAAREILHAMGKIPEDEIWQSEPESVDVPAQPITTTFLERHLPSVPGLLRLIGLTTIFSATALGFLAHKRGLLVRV
quantity.measured: IC50 (µM)
One number for each entry, in µM.

Study these solved cases before continuing.
[
  {
    "smiles.notation": "C=C[C@H]1CNCC[C@H]1CC(=O)c1[nH]c2ccccc2c1CCO",
    "IC50 (µM)": 412
  },
  {
    "smiles.notation": "Cc1c(C(=O)CC2CCNCC2)[nH]c2ccccc12",
    "IC50 (µM)": 121
  },
  {
    "smiles.notation": "O=C(CC1CCNCC1)c1cc2ccccc2[nH]1",
    "IC50 (µM)": 66.6
  }
]

Then this compound:
(Q) Which IC50 is listed for C=C[C@@H]1CNCC[C@@H]1CC(=O)c1[nH]c2ccccc2c1CCO ?
(A) 488

###

target: Amine oxidase [flavin-containing] A (Homo sapiens); test: Inhibition of human recombinant MAO-A expressed in baculovirus infected BTI insect cells using luminogenic MAO substrate incubated for 1 hr by MAO-Glo assay
Sequence (P21397 whole entry): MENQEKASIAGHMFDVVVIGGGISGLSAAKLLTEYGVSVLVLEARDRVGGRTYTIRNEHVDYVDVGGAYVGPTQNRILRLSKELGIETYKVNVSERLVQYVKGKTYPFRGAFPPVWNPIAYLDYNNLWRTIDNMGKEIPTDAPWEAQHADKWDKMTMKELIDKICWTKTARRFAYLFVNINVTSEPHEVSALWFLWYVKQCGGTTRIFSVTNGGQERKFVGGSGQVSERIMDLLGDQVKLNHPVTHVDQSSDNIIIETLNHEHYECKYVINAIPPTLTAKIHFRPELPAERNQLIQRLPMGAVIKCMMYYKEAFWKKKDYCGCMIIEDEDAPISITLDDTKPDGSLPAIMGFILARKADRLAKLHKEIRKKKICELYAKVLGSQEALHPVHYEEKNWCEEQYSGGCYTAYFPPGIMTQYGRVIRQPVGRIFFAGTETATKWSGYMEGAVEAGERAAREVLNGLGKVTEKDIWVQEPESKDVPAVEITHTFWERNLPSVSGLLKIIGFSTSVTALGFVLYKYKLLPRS
quantity.measured: IC50

// below: answered compounds
[
  {
    "smiles.notation": "C=C[C@@H]1CNCC[C@@H]1CC(=O)c1[nH]c2ccccc2c1CCO",
    "tgt": "Amine oxidase [flavin-containing] A (Homo sapiens)",
    "IC50": "> 1000 µM"
  },
  {
    "smiles.notation": "C=C[C@H]1CNCC[C@H]1CC(=O)c1[nH]c2ccccc2c1CCO",
    "tgt": "Amine oxidase [flavin-containing] A (Homo sapiens)",
    "IC50": "> 1000 µM"
  }
]

Now turn to the next compound.
(Q) Record O=C(CC1CCNCC1)c1[nH]c2ccccc2c1CCO : what is its IC50 with Amine oxidase [flavin-containing] A (Homo sapiens)?
(A) > 1000 µM
